Experiment: Human HepG2 cell viability assay in 384 well format
Format: toxicity, cell-based
Design: dose 125 nL, time 70.5 hour; concentration not given beside the values
Conditions: HepG2 cells, read-out: Inhibition
experimental.readout: cytotoxicity at 70.5 h (%)
Expressed in %, but write only the number.

(Q) Need cytotoxicity at 70.5 h, item CCCNC(=O)C1CCN(Cc2csc(C(C)(C)C)n2)CC1
(A) -9.45

(Q) Next record, please: CCn1nc(C(C)C)cc1C(=O)NCc1nc2ccc(OC)cc2[nH]1
(A) -14.7

(Q) Next record, please: Cc1nccn1C1CCCN(C(=O)c2ccc3nnc(C)n3c2)C1 (centres undefined)
(A) 14.1

(Q) Next record, please: Cc1cc(=O)n2ncnc2n1CC(O)c1cc(F)ccc1F (centres undefined)
(A) -11.1

(Q) Next record, please: COc1cc(CNC2CCCN(c3cccnn3)C2)cc2c1OCO2 (centres undefined)
(A) -3.66

(Q) Next record, please: CC(C)(C)c1nc(CN(Cc2cccs2)CC2CCCO2)no1 (centres undefined)
(A) 3.58

(Q) Next record, please: CC(C)c1nc(C(=O)N(C)c2ccc(Br)cn2)cs1
(A) -8.09

(Q) Next record, please: Cc1noc(C2CCN(C(=O)Nc3ccc(N(C)C)nc3)CC2)n1
(A) 1.32

(Q) Next record, please: CN1CCCCC12CCN(c1nncs1)C2 (centres undefined)
(A) -9.3

(Q) Next record, please: CCn1c(C2CCN(Cc3cc(C)n(NC(C)=O)c3C)CC2)n[nH]c1=O
(A) -4.98

(Q) Next record, please: CC(=O)N(C)CC(=O)NC1(c2ccc(F)cc2)CCCC1
(A) -2.78

(Q) Next record, please: Cc1nc(C)n(CC2CCCN2CC(=O)Nc2cc(C)on2)n1 (centres undefined)
(A) -8.96

(Q) Next record, please: Cc1cc(C2CCCCN2C(=O)CN2C(=O)OC(C)(C)C2=O)no1 (centres undefined)
(A) -7.73

(Q) Next record, please: COc1c(C)cnc(CN2CCCC2c2noc(C)n2)c1C (centres undefined)
(A) 3.95

(Q) Next record, please: CCCS(=O)(=O)N1CCC2(CC1)CC(=O)N(Cc1cc(F)cc(F)c1)C2
(A) -7.19

(Q) Next record, please: Fc1cc(Oc2ccc(C(F)(F)F)cn2)cc(F)c1CN1CCCC1
(A) -4.12

(Q) Next record, please: Cn1cnc2c1C(COCC1CC1)CN(C(=O)c1ccsc1)C2 (centres undefined)
(A) 6.4

(Q) Next record, please: Cc1cc(C)c2c(N3CCC(C(=O)N4CCOCC4)CC3)ncnc2n1
(A) 20.2

(Q) Next record, please: O=C(NCc1nnc2n1CCCCC2)N1CCC2(CCCCC2)C1
(A) -6.29

(Q) Next record, please: Cc1noc([C@@H]2CCO[C@@H]3CCN(Cc4ccc(C)s4)C[C@@H]32)n1
(A) -10.1

(Q) Next record, please: Cc1cc(-c2ccccc2C(=O)O)nc(C2CCCCN2C)n1 (centres undefined)
(A) -6.42

(Q) Next record, please: COCc1nc(NCC2CCS(=O)(=O)C2)c2cnn(C)c2n1 (centres undefined)
(A) -7.96

(Q) Next record, please: O=c1ncn(-c2ccccc2F)c2ncccc12
(A) -5.32

(Q) Next record, please: C=C(C)COc1ccc(C(CC(=O)OC)c2oc(C)cc(=O)c2O)cc1 (centres undefined)
(A) -0.596

---

Assay: Human HepG2 cell viability assay in 384 well format
Format: toxicity, cell-based
Design: dose 125 nL, time 70.5 hour; concentration not given beside the values
Settings: HepG2 cells, read-out: Inhibition
Give measured cytotoxicity at 70.5 h for each item. Keep answers brief.
Expressed in %, but write only the number.

(Q) Need cytotoxicity at 70.5 h, item Cn1cc(C2COC3(CCN(C(=O)c4ccccn4)CC3)C2)cn1 (stereo not drawn)
(A) -12.1

(Q) Next record, please: CCC1=N[C@@]2(CC[C@@H]3CN(CC4CC4)C[C@@H]32)C(=O)N1
(A) 7.37

(Q) Next record, please: COc1cc2c(cc1OC)S(=O)(=O)N(Cc1cccc(C)c1)C2=O
(A) -11.2

(Q) Next record, please: Cc1cc(F)c2c(c1)CCCN2C(=O)c1cncc(Br)c1
(A) 0.703

(Q) Next record, please: CCc1nc2ccccc2c(=O)n1CC1(O)CCN(C(=O)COC)CC1
(A) -2.82

(Q) Next record, please: COC1CN(C(=O)CC2CCCC2)CCC(=O)N(C)c2ccccc21 (stereo not drawn)
(A) 21.5

(Q) Next record, please: CC[C@@]1(O)CCN(C(=O)c2ccc(-n3cnnc3)cc2)C[C@H]1O
(A) 20.9

(Q) Next record, please: Cc1nc(C)n(CC2CN(Cc3nccs3)Cc3nccn3C2)n1 (stereo not drawn)
(A) -2.68

(Q) Next record, please: CC(C)Nc1cc(N2CCC(n3cc(CCO)nn3)CC2)ncn1
(A) 16.9

(Q) Next record, please: CCNc1nc(C(=O)N(C)Cc2nc(CC)no2)cs1
(A) -109

(Q) Next record, please: CC[C@@H]1N(C)CCC[C@]12CCC(=O)N2Cc1ccncc1
(A) 0.423

(Q) Next record, please: COc1cc2nc3n(c(=O)c2cc1OC)CCN(C)CC3
(A) 3.41

(Q) Next record, please: O=C(NC1CC1)c1cc(Cl)ccc1-n1cnnn1
(A) -6.19

(Q) Next record, please: Cc1cc(-c2cc(N)c(=O)n(CC(=O)NCC3CCCCC3)n2)c(C)o1
(A) 12.5

(Q) Next record, please: CCC(CC)C(=O)Nc1ccc2oc(=O)n(CCN(C)C)c2c1
(A) 12.5

(Q) Next record, please: O=C(Nc1ccccc1)C1CN(CC2CCOCC2)CC12CCOCC2 (stereo not drawn)
(A) 9.8

(Q) Next record, please: Cc1cnn(CC2CN(Cc3csc(C(C)C)n3)CCO2)c1 (stereo not drawn)
(A) 20.8

(Q) Next record, please: CN(C(=O)c1ccc(C#N)cc1)C1CCN(c2ccccn2)CC1
(A) 12.7

(Q) Next record, please: COCCn1ccc(=O)c(OCC(=O)Nc2ccc(Br)cc2)c1C
(A) -7.36

(Q) Next record, please: CCN(CCNC(=O)C1CCN(C(C)=O)CC1)c1ccccc1C
(A) -12.4

(Q) Next record, please: COc1ccc(-c2cccc(-c3ccn(CC4COCCO4)n3)c2)nn1 (stereo not drawn)
(A) -5.24

(Q) Next record, please: Cc1cnn(CC2CCN(CC(O)COc3ccc(F)cc3)CC2)c1 (stereo not drawn)
(A) 26.5

(Q) Next record, please: COCCN1CCN(C(=O)C[C@@H]2C[C@@H](C(C)C)[C@H](CC#N)C=C2C)CC1
(A) 1.71

---

Test: Human HepG2 cell viability assay in 384 well format
Format: toxicity, cell-based
Design: dose 125 nL, time 70.5 hour; concentration not given beside the values
Conditions: HepG2 cells, read-out: Inhibition
Give measured cytotoxicity at 70.5 h for each item. Keep answers brief.
Expressed in %, but write only the number.

(Q) Need cytotoxicity at 70.5 h, item O=C(Nc1nncs1)c1ccc(O)nc1
(A) 0.228

(Q) Next record, please: CO[C@@H]1CCN(Cc2c(C)noc2C)[C@@H]2CN(Cc3cccnc3)C[C@@H]21
(A) -5.86

(Q) Next record, please: Cc1ccc(C(=O)N2Cc3c(CN(C)C)nn(C)c3C2)cc1C
(A) 4.85

(Q) Next record, please: Cc1cc(NCCC(=O)NC2CCCCC2)nc(-c2ccncc2)n1
(A) 24.9

(Q) Next record, please: O=C(COCC(F)(F)F)N1CCCC(n2cccn2)C1 (centres undefined)
(A) -8.85

(Q) Next record, please: CN1C(=O)[C@H]2CC[C@@H]1CN(c1ncnc3ccsc13)C2
(A) 11.8

(Q) Next record, please: Brc1cnc(NCCCOCC2CCOCC2)nc1
(A) -5.42

(Q) Next record, please: CC(C)(N)c1cn([C@@H]2c3ccccc3C3(CCNCC3)[C@H]2O)nn1
(A) -4.25

(Q) Next record, please: Cc1cnn(CC2CCCN2Cc2coc(-c3ccc(F)cc3)n2)c1 (centres undefined)
(A) -115

(Q) Next record, please: O=C(C1CCC2(CCN(Cc3cccnc3)CC2)CO1)N1CCCC1 (centres undefined)
(A) -7.42

(Q) Next record, please: CC(NC(=O)NCCCn1cncn1)c1ccncc1 (centres undefined)
(A) 2.26

(Q) Next record, please: CN(C)C(=O)CN1CC=C(c2cnn(Cc3ccccc3)c2)CC1
(A) -15.3

(Q) Next record, please: CCCc1cc(NC2CCc3nc(C)nn3C2)n2ncnc2n1 (centres undefined)
(A) -112

(Q) Next record, please: CCSc1ccc(C(=O)NCCc2nnc(-c3ccco3)[nH]2)cn1
(A) -6.64

(Q) Next record, please: Cc1nc2scc(C)n2c1CNc1ccc(C(=O)O)cc1
(A) 19.2

(Q) Next record, please: O=C(CNC(=O)c1ccccc1Cl)Nc1nccs1
(A) 1.89

(Q) Next record, please: Cc1ccc(C(=O)N2CC(c3cccnc3)C2)cc1N1CCNC1=O
(A) -7.03

(Q) Next record, please: Cc1ccc(Sc2ccc(N3CCC(C(=O)O)CC3)nn2)cc1
(A) 33.4

(Q) Next record, please: CC(C)CN1CC(C(=O)NCc2cccnc2-n2cccn2)CC1=O (centres undefined)
(A) -8.02

(Q) Next record, please: Cc1nc(CN(C)C(=O)Nc2cccc(C)c2C)no1
(A) -9.32

(Q) Next record, please: O=c1[nH]nc2nc(N3CCSCC3)ccn12
(A) 0.517

(Q) Next record, please: Cc1c(NC(=O)N(C)CCCc2cnn(C)c2)cnn1C
(A) -12.2

(Q) Next record, please: Cc1ccc(-c2nc(CC(=O)N3CCCC(NC(=O)C(C)C)C3)cs2)o1 (centres undefined)
(A) -4.05

(Q) Next record, please: CC(=O)N1CCn2c(COCc3csc(C)n3)cnc2C1C (centres undefined)
(A) -20.1

(Q) Next record, please: CC(C)Oc1cccc(C(=O)C2CCCN(C(=O)c3ccnn3C)C2)c1 (centres undefined)
(A) 19.8

(Q) Next record, please: Cc1ccc2oc(C(=O)N3CCCC(n4cccn4)C3)cc2n1 (centres undefined)
(A) 21.1

(Q) Next record, please: Cn1cc(CN2CCN(Cc3nccn3C)CC2)cn1
(A) 29.1

(Q) Next record, please: Cc1csc2nc3n(c(=O)c12)CCN(Cc1ccccn1)CC3
(A) 2.36

(Q) Next record, please: O=C(Nc1ccccn1)C1=NN(c2ccccc2)C(=O)CN1
(A) 45.9

(Q) Next record, please: Clc1ccc(C2(CNC3=NCCN3)CCCCC2)cc1
(A) 26.8

(Q) Next record, please: CSCCC(O)C(=O)N1CCC(OCc2cccnc2)CC1 (centres undefined)
(A) 16.3

(Q) Next record, please: CCCNC(=O)c1nc2c(o1)CN(c1ncccn1)C2
(A) -2.16

(Q) Next record, please: Cc1cccnc1CNC(=O)NC(C)Cc1c(C)nn(C)c1C (centres undefined)
(A) -5.5

(Q) Next record, please: CN1CCCC(CNC(=O)CN(C)S(=O)(=O)c2cccnc2)C1 (centres undefined)
(A) 6.09

(Q) Next record, please: CCc1ccsc1C(=O)N1CCS(=O)(=O)CC1
(A) -8.8

(Q) Next record, please: Cc1c(Br)cc2c(c1C)OCC(N(C)C)C2=O (centres undefined)
(A) 19.9

(Q) Next record, please: CCc1c(C)nc2n(c1=O)CC(C(=O)Nc1ncccc1C)CS2 (centres undefined)
(A) -8.04

(Q) Next record, please: Cc1[nH]c2ccccc2c1-c1ccnc(NCCN2CCOCC2)n1
(A) 25.2

(Q) Next record, please: CCCS(=O)(=O)NC(C)C(=O)NCc1ccc(N2CCN(C)CC2)nc1 (centres undefined)
(A) -2.17

(Q) Next record, please: CN1CCOC(CNC(=O)Cc2coc(-c3ccccc3)n2)C1 (centres undefined)
(A) -13.1

(Q) Next record, please: COc1cc(N2CCC3(CCN(Cc4nccs4)CC3)C2)ncn1
(A) 30.8

(Q) Next record, please: Cc1ccccc1C1CN(c2cnn(C)c(=O)c2Cl)CCO1 (centres undefined)
(A) -1.35

(Q) Next record, please: CN(C)C1CCCN(C(=O)CCc2csc(N)n2)CC1 (centres undefined)
(A) 1.01

(Q) Next record, please: CCn1cnnc1C1CCN(C(=O)c2c(C)oc(C)c2C)CC1
(A) 0.3

(Q) Next record, please: CCOCC1CN(C(=O)N2CCCC2)Cc2cnn(CC)c21 (centres undefined)
(A) -4.21

(Q) Next record, please: CSc1ccc(OC(C)C(=O)Nc2c(C)n[nH]c2C)cc1 (centres undefined)
(A) -3.26

(Q) Next record, please: CC(=O)Nc1ccsc1C(=O)Nc1cnc2n1CCCC2
(A) -4.21

(Q) Next record, please: COCCN1CCCC(O)(CN2CCN(c3ncccc3C)CC2)C1=O (centres undefined)
(A) -7.68

(Q) Next record, please: Cc1n[nH]c(SCC(=O)NC(c2ccncc2)C(C)C)n1 (centres undefined)
(A) 21
